# Assay Text: in vivo
# Test Parameters: Indian, rhesus monkey
Measurement Type: half-life (days)
Just the number in days, nothing appended.

Given the entry C[C@H]1CO[C@@H]2Cn3cc(C(=O)NCc4ccc(F)cc4F)c(=O)c(O)c3C(=O)N12 , report its measured half-life.
10.7
